- Test System: ATP-dependent translocase ABCB1 (Homo sapiens, UniProt P08183)
- Assay: Inhibition of P-glycoprotein in human doxorubicin-resistant K562 cells assessed as half maximal increase of pirarubicin accumulation by spectrofluorometric analysis
Parameter: IC50 (nM)

* COc1ccc(C(C#N)(CCC(=O)O[C@H]2CC[C@H](N(C)[C@H]3CC[C@@H](OC(=O)/C=C/c4cc(OC)c(OC)c(OC)c4)CC3)CC2)C(C)C)cc1OC (mixture of isomers) | 240

A. COc1ccc(C(C#N)(CCC(=O)O[C@H]2CC[C@@H](N(C)[C@H]3CC[C@@H](OC(=O)/C=C/c4cc(OC)c(OC)c(OC)c4)CC3)CC2)C(C)C)cc1OC (stereo partly drawn)
B. COc1cc(C#CC(=O)O[C@H]2CC[C@H](N(C)[C@H]3CC[C@@H](OC(=O)C4c5ccccc5-c5ccccc54)CC3)CC2)cc(OC)c1OC (mixture of isomers)
When A and B are compared, which has the higher number for IC50? Lab log: write the label of the selected item as the result. B

* * *

- Test System: ATP-dependent translocase ABCB1 (Homo sapiens, UniProt P08183)
- Assay: Inhibition of P-glycoprotein in human doxorubicin-resistant K562 cells assessed as half maximal increase of pirarubicin accumulation by spectrofluorometric analysis
pIC50: −log10 of the molar value.
Parameter: pIC50

• COc1ccc(C(C#N)(CCC(=O)O[C@H]2CC[C@H](N(C)[C@H]3CC[C@H](OC(=O)/C=C/c4cc(OC)c(OC)c(OC)c4)CC3)CC2)C(C)C)cc1OC (stereo partly specified) = 6.85
• COc1cc(/C=C/C(=O)O[C@H]2CC[C@H](N(C)[C@H]3CC[C@H](OC(=O)c4cc(OC)c(OC)c(OC)c4)CC3)CC2)cc(OC)c1OC = 6.49

A. COc1cc(CCC(=O)O[C@H]2CC[C@@H](N(C)[C@H]3CC[C@@H](OC(=O)c4cc(OC)c(OC)c(OC)c4)CC3)CC2)cc(OC)c1OC
B. COc1ccc(C(C#N)(CCC(=O)O[C@H]2CC[C@@H](N(C)[C@H]3CC[C@H](OC(=O)/C=C/c4cc(OC)c(OC)c(OC)c4)CC3)CC2)C(C)C)cc1OC (mixture of isomers)
Choose between A and B : whose measured pIC50 value is numerically larger? Your answer should be the label attached to the chosen record. B
(B: 7.10, A: 5.96)

* * *

- Test System: UniProtKB P08183
- Assay: Inhibition of P-glycoprotein in human doxorubicin-resistant K562 cells assessed as half maximal increase of pirarubicin accumulation by spectrofluorometric analysis
pIC50: −log10 of the molar value.
Parameter: pIC50

Some solved cases for reference:
• COc1cc(/C=C/C(=O)O[C@H]2CC[C@@H](N(C)[C@H]3CC[C@@H](OC(=O)C4c5ccccc5-c5ccccc54)CC3)CC2)cc(OC)c1OC = 6.74
• COc1cc(/C=C/C(=O)O[C@H]2CC[C@H](N(C)[C@H]3CC[C@@H](OC(=O)C4c5ccccc5-c5ccccc54)CC3)CC2)cc(OC)c1OC (mixture of isomers) = 6.82
• COc1ccc(C(C(=O)O[C@H]2CC[C@H](N(C)[C@H]3CC[C@@H](OC(=O)C#Cc4cc(OC)c(OC)c(OC)c4)CC3)CC2)c2ccc(OC)cc2)cc1 (mixture of isomers) = 6.89
• COc1cc(C#CC(=O)O[C@H]2CC[C@H](N(C)[C@H]3CC[C@@H](OC(=O)c4cc(OC)c(OC)c(OC)c4)CC3)CC2)cc(OC)c1OC (mixture of isomers) = 7.10

1. COc1cc(C#CC(=O)O[C@H]2CC[C@@H](N(C)[C@H]3CC[C@@H](OC(=O)C4c5ccccc5-c5ccccc54)CC3)CC2)cc(OC)c1OC
2. COc1cc(CCC(=O)O[C@H]2CC[C@H](N(C)[C@H]3CC[C@@H](OC(=O)c4cc(OC)c(OC)c(OC)c4)CC3)CC2)cc(OC)c1OC (mixture of isomers)
Compare 1 and 2 and name the one whose reported pIC50 is smaller. Refer to your chosen item by its label in the answer. 2
(2: 6.20, 1: 7.30)

* * *

- Test System: P-glycoprotein (ABCB1) (Homo sapiens)
- Sequence (P08183 whole entry): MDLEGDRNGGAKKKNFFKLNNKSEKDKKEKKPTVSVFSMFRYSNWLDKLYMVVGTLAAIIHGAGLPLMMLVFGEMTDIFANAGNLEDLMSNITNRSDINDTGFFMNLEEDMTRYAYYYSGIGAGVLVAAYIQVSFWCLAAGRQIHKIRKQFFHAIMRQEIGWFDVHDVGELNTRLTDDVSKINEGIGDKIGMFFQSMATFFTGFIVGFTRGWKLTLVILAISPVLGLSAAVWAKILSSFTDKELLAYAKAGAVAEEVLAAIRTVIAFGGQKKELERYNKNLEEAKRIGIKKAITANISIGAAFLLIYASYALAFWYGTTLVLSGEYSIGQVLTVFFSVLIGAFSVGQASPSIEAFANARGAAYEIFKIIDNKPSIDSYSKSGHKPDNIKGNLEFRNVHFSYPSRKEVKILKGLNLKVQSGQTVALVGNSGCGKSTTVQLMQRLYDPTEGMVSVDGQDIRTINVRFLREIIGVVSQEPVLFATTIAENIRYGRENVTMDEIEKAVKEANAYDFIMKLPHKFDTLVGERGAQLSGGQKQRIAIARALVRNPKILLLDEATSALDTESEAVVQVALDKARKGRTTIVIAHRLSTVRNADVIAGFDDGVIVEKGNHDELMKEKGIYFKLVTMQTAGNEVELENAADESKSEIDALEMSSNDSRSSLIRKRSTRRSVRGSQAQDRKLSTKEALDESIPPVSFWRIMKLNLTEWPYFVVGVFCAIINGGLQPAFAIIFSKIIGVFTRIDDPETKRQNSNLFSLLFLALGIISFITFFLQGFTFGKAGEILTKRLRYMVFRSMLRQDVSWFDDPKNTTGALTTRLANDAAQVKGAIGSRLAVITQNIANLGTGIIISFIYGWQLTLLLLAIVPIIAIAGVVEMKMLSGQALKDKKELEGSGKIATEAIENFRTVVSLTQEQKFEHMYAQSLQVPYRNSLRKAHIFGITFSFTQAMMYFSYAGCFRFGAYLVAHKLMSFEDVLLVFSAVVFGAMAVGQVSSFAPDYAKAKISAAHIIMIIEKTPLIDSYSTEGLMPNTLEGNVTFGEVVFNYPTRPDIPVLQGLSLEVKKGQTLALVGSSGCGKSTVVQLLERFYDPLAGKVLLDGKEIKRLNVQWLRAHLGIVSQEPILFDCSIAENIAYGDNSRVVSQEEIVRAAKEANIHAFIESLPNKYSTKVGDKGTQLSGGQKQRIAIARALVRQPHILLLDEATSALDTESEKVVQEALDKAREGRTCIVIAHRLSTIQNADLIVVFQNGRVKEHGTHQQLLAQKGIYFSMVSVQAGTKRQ
- Assay: Inhibition of P-glycoprotein in human doxorubicin-resistant K562 cells assessed as maximal increase of pirarubicin accumulation by spectrofluorometric analysis relative to control
- Format: cell-based
- Measurement Conditions: probe pirarubicin
Parameter: Emax (%)

* COc1ccc(C(C#N)(CCC(=O)O[C@H]2CC[C@H](N(C)[C@H]3CC[C@@H](OC(=O)/C=C/c4cc(OC)c(OC)c(OC)c4)CC3)CC2)C(C)C)cc1OC (mixture of isomers) | 88
* COc1cc(/C=C/C(=O)O[C@H]2CC[C@H](N(C)[C@H]3CC[C@@H](OC(=O)C4c5ccccc5-c5ccccc54)CC3)CC2)cc(OC)c1OC (mixture of isomers) | 99
* COc1cc(CCC(=O)O[C@H]2CC[C@@H](N(C)[C@H]3CC[C@@H](OC(=O)c4cc(OC)c(OC)c(OC)c4)CC3)CC2)cc(OC)c1OC | 76
* COc1cc(/C=C/C(=O)O[C@H]2CC[C@H](N(C)[C@H]3CC[C@@H](OC(=O)c4cc(OC)c(OC)c(OC)c4)CC3)CC2)cc(OC)c1OC (mixture of isomers) | 85
* COc1cc(CCC(=O)O[C@H]2CC[C@H](N(C)[C@H]3CC[C@@H](OC(=O)c4cc(OC)c(OC)c(OC)c4)CC3)CC2)cc(OC)c1OC (mixture of isomers) | 75
* COc1cc(/C=C/C(=O)O[C@H]2CC[C@@H](N(C)[C@H]3CC[C@H](OC(=O)c4cc(OC)c(OC)c(OC)c4)CC3)CC2)cc(OC)c1OC | 98
* COc1cc(CCC(=O)O[C@H]2CC[C@H](N(C)[C@H]3CC[C@H](OC(=O)c4cc(OC)c(OC)c(OC)c4)CC3)CC2)cc(OC)c1OC | 76
* COc1cc(C#CC(=O)O[C@H]2CC[C@H](N(C)[C@H]3CC[C@H](OC(=O)c4cc(OC)c(OC)c(OC)c4)CC3)CC2)cc(OC)c1OC | 99
* COc1cc(C#CC(=O)O[C@H]2CC[C@@H](N(C)[C@H]3CC[C@@H](OC(=O)C4c5ccccc5-c5ccccc54)CC3)CC2)cc(OC)c1OC | 89
* COc1ccc(C(C#N)(CCC(=O)O[C@H]2CC[C@@H](N(C)[C@H]3CC[C@@H](OC(=O)/C=C/c4cc(OC)c(OC)c(OC)c4)CC3)CC2)C(C)C)cc1OC (stereo partly drawn) | 99
* COc1ccc(C(C(=O)O[C@H]2CC[C@H](N(C)[C@H]3CC[C@@H](OC(=O)C#Cc4cc(OC)c(OC)c(OC)c4)CC3)CC2)c2ccc(OC)cc2)cc1 (mixture of isomers) | 76
* COc1ccc(C(C#N)(CCC(=O)O[C@H]2CC[C@@H](N(C)[C@H]3CC[C@H](OC(=O)/C=C/c4cc(OC)c(OC)c(OC)c4)CC3)CC2)C(C)C)cc1OC (mixture of isomers) | 89
* COc1cc(/C=C/C(=O)O[C@H]2CC[C@@H](N(C)[C@H]3CC[C@H](OC(=O)C4c5ccccc5-c5ccccc54)CC3)CC2)cc(OC)c1OC (mixture of isomers) | 81
* COc1ccc(C(C(=O)O[C@H]2CC[C@@H](N(C)[C@H]3CC[C@@H](OC(=O)C#Cc4cc(OC)c(OC)c(OC)c4)CC3)CC2)c2ccc(OC)cc2)cc1 (mixture of isomers) | 94
* COc1cc(C#CC(=O)O[C@H]2CC[C@H](N(C)[C@H]3CC[C@H](OC(=O)C4c5ccccc5-c5ccccc54)CC3)CC2)cc(OC)c1OC | 77
* COc1cc(C#CC(=O)O[C@H]2CC[C@H](N(C)[C@H]3CC[C@@H](OC(=O)C4c5ccccc5-c5ccccc54)CC3)CC2)cc(OC)c1OC (mixture of isomers) | 91
* COc1ccc(C(C#N)(CCCNCc2c3ccccc3cc3ccccc23)C(C)C)cc1OC (stereo not drawn) | 70
* COc1cc(C#CC(=O)O[C@H]2CC[C@@H](N(C)[C@H]3CC[C@@H](OC(=O)c4cc(OC)c(OC)c(OC)c4)CC3)CC2)cc(OC)c1OC | 99
* COc1ccc(C(C#N)(CCC(=O)O[C@H]2CC[C@H](N(C)[C@H]3CC[C@H](OC(=O)/C=C/c4cc(OC)c(OC)c(OC)c4)CC3)CC2)C(C)C)cc1OC (stereo partly drawn) | 99
* COc1cc(C#CC(=O)O[C@H]2CC[C@@H](N(C)[C@H]3CC[C@H](OC(=O)c4cc(OC)c(OC)c(OC)c4)CC3)CC2)cc(OC)c1OC (mixture of isomers) | 99
* COc1ccc(C(C(=O)O[C@H]2CC[C@@H](N(C)[C@H]3CC[C@H](OC(=O)C#Cc4cc(OC)c(OC)c(OC)c4)CC3)CC2)c2ccc(OC)cc2)cc1 (mixture of isomers) | 99
* COc1ccc(C(C(=O)O[C@H]2CC[C@H](N(C)[C@H]3CC[C@H](OC(=O)C#Cc4cc(OC)c(OC)c(OC)c4)CC3)CC2)c2ccc(OC)cc2)cc1 | 74
* COc1cc(C#CC(=O)O[C@H]2CC[C@H](N(C)[C@H]3CC[C@@H](OC(=O)c4cc(OC)c(OC)c(OC)c4)CC3)CC2)cc(OC)c1OC (mixture of isomers) | 98
